Target: T1, COX14 peptide complexed with HLA-A*02:01 on T2 cells (human)
T1 construct: whole, on cells
Test: flow cytometry, peptide-loaded T2 cells;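 also: binding of single-chain Fv antibody constructs, raised in XenoMouse, to peptide-pulsed T2 cells measured by flow cytometry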
outcome-measure: Signal/background
No unit in the answer, only the number.

Here's what some known entries look like.
{"columns": ["binder", "outcome-measure", "value-observed"],
 "data": [
  ["18179-B12 (scFv, scFv in bacterial lysate, detected with anti-Flag M2) scFv: EVQLLESGGGLVQPGGSLRLSCAASGFTFSNAWMSWVRQAPGKGLEWVGRIKGNTYGGTTDYAAPVKGRFTISRDDSKNTLFLQMNSLKTEDTAVYYCTTPSNSGSYYNYFSVMDVWGQGTTVTVSSGGGGSGGGGSGGGGSELVMTQSPSSLSASVGDRVTITCRTSQSISSYLNWFQQKPGKAPKLLIFAASSLQSGVPSRFSGSGSGTDFTLTISSLQPEDFATYYCQQTYSMPFTFGPGTKVEIK", "Signal/background", 1],
  ["18181-A6 (scFv, scFv in bacterial lysate, detected with anti-Flag M2) scFv: EVQLLESGGGLVQPGGSLRLSCAASGFTFSNAWMSWVRQAPGKGLEWVGRIKGNTYGGTTDYAAPVKGRFTISRDDSKNTLYLQMNSLKTEDTAVYYCTTPSYSGSYYNYFSVMDVWGQGTTVTVSSGGGGSGGGGSGGGGSELVMTQSPSSLSASVGDRVTITCRASQSISSYLNWYQQKPGRAPKLLIFAASSLQGGVPSRFSGSGSGTDFTLTISSLQPEDFATYYCQQTYSMPFTFGPGTKLEIK", "Signal/background", 0.9]
]}

Kindly consider the entry below.
**Q:** Supply reported Signal/background belonging to this binder: 18179-H7 (scFv, scFv in bacterial lysate, detected with anti-Flag M2) scFv: EVQLLESGGGLVQPGGSLRLSCAASGFTFSNAWMSWVRQAPGKGLEWVGRIKSKTYGGTTDYAAPVKGRFTISRDDSKNTLYLQMNSLKTEDTAVYYCTTPSYSGSYYNYFSVMDVWGQGTTVTVSSGGGGSGGGGSGGGGSELQMTQSPSSLSASVGDRVTITCRTSQSISSYLNWFQQKPGKAPKLLIFAASSLQSGVPSRFSGSGSGTDFTLTISSLQPEDFATYYCQQSYSSPFTFGPGTKVEIK
**A:** 1
